FYI, the data here is from ChEMBL document CHEMBL3414535.

biological target: Bifunctional protein GlmU (Escherichia coli (strain K12)); experiment: Inhibition of Escherichia coli GlmU acetyltransferase activity assessed as coenzyme A production using acetyl CoA substrate at 100 uM
REPORTED PROPERTY: inhibition (%)

Check out these entries, answers already filled in.
[
  {
    "MOLECULE": "Cc1ccc(C)c(NS(=O)(=O)c2ccc(-c3nnc(C(C)C)o3)o2)c1",
    "TGT": "Bifunctional protein GlmU (Escherichia coli (strain K12))",
    "RECORDED VALUE": 34.4
  },
  {
    "MOLECULE": "COCCNC(=O)c1ccccc1NS(=O)(=O)c1ccc2c(c1)OCCO2",
    "TGT": "Bifunctional protein GlmU (Escherichia coli (strain K12))",
    "RECORDED VALUE": 12
  },
  {
    "MOLECULE": "CCc1ccccc1NS(=O)(=O)c1ccc(-c2ccc(=O)[nH]n2)o1",
    "TGT": "Bifunctional protein GlmU (Escherichia coli (strain K12))",
    "RECORDED VALUE": 9.82
  }
]

(a) COC(=O)C1CN(C(=O)C(C)Oc2ccccc2F)c2ccccc2O1 (centres undefined)
(b) O=C(Nc1nonc1-c1ccccc1)C1COc2ccccc2O1 (centres undefined)
Req: // select label with min value of measured inhibition from [ a , b ] Could you answer with the label of the item you picked?
Resp: b

(P) CCOC(=O)COc1ccccc1/C=C1\N=C(SCC)SC1=O
(Q) CCOC(=O)c1cc(S(=O)(=O)N(C)CC(=O)Nc2ccc(C)cn2)cn1C
Req: Two entries are listed, P and Q . Which one carries the higher inhibition? Could you answer with the label of the item you picked?
Resp: P
(P: 45.3%, Q: 14.3%)

(A) O=S(=O)(NCc1cccnc1)c1ccc(-c2ccno2)o1
(B) CCCN1C=NS(=O)(=O)c2cc(C(=O)Nc3ccccc3F)ccc21
Req: // select label with min value of measured inhibition from [ A , B ] Could you answer with the label of the item you picked?
Resp: B
(B: 20.1%, A: 44.7%)

(a) COc1ccc(S(=O)(=O)C(CNC(=O)c2ccccc2)c2ccco2)cc1 (centres undefined)
(b) O=S(=O)(Nc1ccc(F)c(F)c1)c1c[nH]c2ncccc12
Req: Two entries are listed, a and b . Which one carries the higher inhibition? Could you answer with the label of the item you picked?
Resp: b

###

target: Bifunctional protein GlmU (Escherichia coli (strain K12)); assay: Inhibition of Escherichia coli GlmU acetyltransferase activity assessed as coenzyme A production using acetyl CoA substrate at 100 uM
REPORTED PROPERTY: inhibition (%)

Check out these entries, answers already filled in.
[
  {
    "QUERY SMILES": "Cc1nc2c(c(SCC(=O)c3ccc(O)cc3O)n1)CCC2",
    "TGT": "Bifunctional protein GlmU (Escherichia coli (strain K12))",
    "inhibition / %": 25.9
  },
  {
    "QUERY SMILES": "O=C(CN1c2ccc(F)cc2-c2ccccc2S1(=O)=O)Nc1cccnc1",
    "TGT": "Bifunctional protein GlmU (Escherichia coli (strain K12))",
    "inhibition / %": 19.8
  },
  {
    "QUERY SMILES": "COc1cc(NS(=O)(=O)c2c[nH]c3ncccc23)cc(OC)c1",
    "TGT": "Bifunctional protein GlmU (Escherichia coli (strain K12))",
    "inhibition / %": 19.3
  },
  {
    "QUERY SMILES": "O=C(CSC1=NS(=O)(=O)c2ccccc2N1)OCc1ccccc1",
    "TGT": "Bifunctional protein GlmU (Escherichia coli (strain K12))",
    "inhibition / %": 18.4
  },
  {
    "QUERY SMILES": "c1cncc(CNc2nnc(-c3nc(C4CC4)no3)c3ccccc23)c1",
    "TGT": "Bifunctional protein GlmU (Escherichia coli (strain K12))",
    "inhibition / %": 18.5
  },
  {
    "QUERY SMILES": "O=S(=O)(Nc1cc(F)ccc1F)c1c[nH]c2ncccc12",
    "TGT": "Bifunctional protein GlmU (Escherichia coli (strain K12))",
    "inhibition / %": 16.8
  }
]

(I) CCOC(=O)c1c(C)[nH]c(C)c1S(=O)(=O)NCC(=O)Nc1cccnc1
(II) O=S(=O)(c1cc(-c2nnc(C3CCCC3)o2)co1)N1CCc2ccccc2C1
Req: Two entries are listed, I and II . Which one carries the higher inhibition? Could you answer with the label of the item you picked?
Resp: II
(II: 32.3%, I: 16.5%)
